Where do these numbers come from? They come from paper PMC5028780.

molecular target: κ (Homo sapiens, UniProt P41145)
Sequence (P41145 whole entry): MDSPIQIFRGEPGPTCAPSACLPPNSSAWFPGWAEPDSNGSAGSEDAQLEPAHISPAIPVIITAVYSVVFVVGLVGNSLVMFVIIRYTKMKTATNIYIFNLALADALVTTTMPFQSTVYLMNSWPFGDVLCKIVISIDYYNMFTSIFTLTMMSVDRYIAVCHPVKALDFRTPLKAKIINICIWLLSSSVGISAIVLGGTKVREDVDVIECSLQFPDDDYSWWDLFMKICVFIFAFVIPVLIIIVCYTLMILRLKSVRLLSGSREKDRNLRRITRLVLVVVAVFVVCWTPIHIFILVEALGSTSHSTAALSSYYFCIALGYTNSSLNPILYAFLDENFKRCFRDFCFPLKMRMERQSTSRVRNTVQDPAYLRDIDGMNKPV
measurementName: IC50

• C[C@]12C[C@@H](O)[C@@H]3C[C@@]1(O[C@@H]1O[C@H](CO)[C@@H](O)[C@H](O)[C@H]1O)[C@@]3(COC(=O)c1ccccc1)C(=O)O2 = > 10 µM

----------
Target: β1 (Homo sapiens)
Sequence (P08588 whole entry): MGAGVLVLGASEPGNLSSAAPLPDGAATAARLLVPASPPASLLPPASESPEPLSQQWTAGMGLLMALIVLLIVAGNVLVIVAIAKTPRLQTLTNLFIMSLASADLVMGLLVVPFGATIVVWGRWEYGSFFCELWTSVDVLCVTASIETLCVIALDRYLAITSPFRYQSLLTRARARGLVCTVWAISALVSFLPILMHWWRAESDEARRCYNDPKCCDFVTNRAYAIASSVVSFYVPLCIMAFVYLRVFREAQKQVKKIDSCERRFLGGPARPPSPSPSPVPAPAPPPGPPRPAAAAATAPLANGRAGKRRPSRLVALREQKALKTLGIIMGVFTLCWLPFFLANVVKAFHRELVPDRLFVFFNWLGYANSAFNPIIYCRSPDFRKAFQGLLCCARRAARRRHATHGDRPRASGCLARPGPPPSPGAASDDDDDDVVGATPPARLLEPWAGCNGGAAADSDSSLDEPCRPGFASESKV
Test: CNS receptor binding, NE receptor β1
Conditions: HEK293 cell line, [3H]-DHA(1), read-out: IC50 values for albiflorin
Procedure: Albiflorin (10 μM) was tested for numerous other potential binding targets by using standard receptor binding procedures. The tested targets included the following receptors: D1, D2, D3, D4, D5, 5-HT1A, 5-HT1B, 5-HT1D, 5-HT2a, 5-HT2C, 5-HT3, 5-HT5A, 5-HT6, 5-HT7, α1A, α1B, α2A, β1, M1, M2, M3, M4, M5, μ, κ, δ, A1, A2A, H1, H2, H3, H4.
measurementName: IC50 (µM)

* C[C@]12C[C@@H](O)[C@@H]3C[C@@]1(O[C@@H]1O[C@H](CO)[C@@H](O)[C@H](O)[C@H]1O)[C@@]3(COC(=O)c1ccccc1)C(=O)O2 | 3.35

----------
biological target: UniProt:Q63380
Sequence (Q63380 1-617): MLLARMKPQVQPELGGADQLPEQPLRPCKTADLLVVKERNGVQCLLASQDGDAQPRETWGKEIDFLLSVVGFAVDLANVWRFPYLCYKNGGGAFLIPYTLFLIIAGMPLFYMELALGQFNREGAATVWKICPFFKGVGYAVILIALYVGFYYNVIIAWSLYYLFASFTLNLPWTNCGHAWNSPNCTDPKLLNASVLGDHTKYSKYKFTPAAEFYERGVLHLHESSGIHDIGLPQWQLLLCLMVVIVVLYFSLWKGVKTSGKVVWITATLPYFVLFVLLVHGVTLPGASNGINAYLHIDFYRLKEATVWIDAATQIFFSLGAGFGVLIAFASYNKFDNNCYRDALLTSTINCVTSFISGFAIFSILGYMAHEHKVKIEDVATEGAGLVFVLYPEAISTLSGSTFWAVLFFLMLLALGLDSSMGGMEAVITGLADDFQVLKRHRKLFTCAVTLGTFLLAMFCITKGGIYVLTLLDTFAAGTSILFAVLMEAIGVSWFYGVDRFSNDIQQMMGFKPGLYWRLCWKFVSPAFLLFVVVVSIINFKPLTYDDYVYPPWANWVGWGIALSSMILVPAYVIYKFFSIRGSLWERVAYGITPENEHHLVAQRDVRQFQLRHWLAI
pKi: −log10 of the molar value.
measurementName: pKi

- C[C@]12C[C@@H](O)[C@@H]3C[C@@]1(O[C@@H]1O[C@H](CO)[C@@H](O)[C@H](O)[C@H]1O)[C@@]3(COC(=O)c1ccccc1)C(=O)O2: 8.90

----------
biological target: UniProt P47898
Sequence (P47898 whole entry): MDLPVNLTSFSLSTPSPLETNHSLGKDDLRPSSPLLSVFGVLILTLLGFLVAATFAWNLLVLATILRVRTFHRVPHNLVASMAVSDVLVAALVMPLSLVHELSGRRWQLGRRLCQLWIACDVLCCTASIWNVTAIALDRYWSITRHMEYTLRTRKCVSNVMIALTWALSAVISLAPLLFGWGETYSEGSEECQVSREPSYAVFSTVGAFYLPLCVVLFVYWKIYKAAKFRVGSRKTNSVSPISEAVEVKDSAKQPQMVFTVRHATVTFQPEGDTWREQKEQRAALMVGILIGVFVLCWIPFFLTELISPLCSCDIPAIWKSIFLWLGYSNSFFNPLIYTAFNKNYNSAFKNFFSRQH
pIC50: −log10 of the molar value.
measurementName: pIC50

- C[C@]12C[C@@H](O)[C@@H]3C[C@@]1(O[C@@H]1O[C@H](CO)[C@@H](O)[C@H](O)[C@H]1O)[C@@]3(COC(=O)c1ccccc1)C(=O)O2: < 5.00

----------
molecular target: D5 (Homo sapiens); test: CNS receptor binding, dopamine D5; conditions: HEK293 cell line, [3H]-SCH23390(1), read-out: IC50 values for albiflorin
Sequence (P21918 whole entry): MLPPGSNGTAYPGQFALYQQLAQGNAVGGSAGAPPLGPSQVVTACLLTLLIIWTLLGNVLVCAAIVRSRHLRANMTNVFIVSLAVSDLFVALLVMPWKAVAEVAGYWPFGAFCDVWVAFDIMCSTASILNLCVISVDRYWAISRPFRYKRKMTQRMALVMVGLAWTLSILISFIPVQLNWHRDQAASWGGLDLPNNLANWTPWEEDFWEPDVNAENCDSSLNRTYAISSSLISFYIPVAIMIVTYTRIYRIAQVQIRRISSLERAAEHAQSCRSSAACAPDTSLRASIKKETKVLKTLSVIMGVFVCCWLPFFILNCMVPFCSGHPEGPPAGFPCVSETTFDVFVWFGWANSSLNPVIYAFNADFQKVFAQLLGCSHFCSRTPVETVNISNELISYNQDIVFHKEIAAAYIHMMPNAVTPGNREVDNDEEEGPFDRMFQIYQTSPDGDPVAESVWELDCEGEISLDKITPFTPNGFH
pIC50: −log10 of the molar value.
measurementName: pIC50

- C[C@]12C[C@@H](O)[C@@H]3C[C@@]1(O[C@@H]1O[C@H](CO)[C@@H](O)[C@H](O)[C@H]1O)[C@@]3(COC(=O)c1ccccc1)C(=O)O2: < 5.00

----------
molecular target: DAT (Rattus norvegicus); construct: rat brain synaptosomes were prepared and treated with various concentrations of albiflorin; details: Striatum synaptosome, read-out: IC50 values, uptake of [3H]-DA (DAT)
Sequence (P23977 whole entry): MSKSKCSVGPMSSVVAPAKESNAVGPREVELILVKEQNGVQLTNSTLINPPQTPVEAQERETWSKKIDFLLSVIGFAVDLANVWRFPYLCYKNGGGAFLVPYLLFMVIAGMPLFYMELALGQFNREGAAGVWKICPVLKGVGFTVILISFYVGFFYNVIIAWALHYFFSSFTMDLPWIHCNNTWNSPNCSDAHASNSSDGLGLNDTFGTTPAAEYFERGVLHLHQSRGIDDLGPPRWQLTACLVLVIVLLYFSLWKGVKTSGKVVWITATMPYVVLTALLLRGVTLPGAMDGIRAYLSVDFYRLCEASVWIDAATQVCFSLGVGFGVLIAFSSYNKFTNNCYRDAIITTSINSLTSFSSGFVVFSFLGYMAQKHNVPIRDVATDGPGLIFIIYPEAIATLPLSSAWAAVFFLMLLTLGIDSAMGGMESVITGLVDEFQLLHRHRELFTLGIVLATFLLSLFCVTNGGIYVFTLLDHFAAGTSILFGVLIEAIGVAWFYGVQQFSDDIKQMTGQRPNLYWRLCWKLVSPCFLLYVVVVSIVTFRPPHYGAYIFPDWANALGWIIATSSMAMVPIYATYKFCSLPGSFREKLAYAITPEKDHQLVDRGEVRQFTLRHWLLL
pIC50: −log10 of the molar value.
measurementName: pIC50

• C[C@]12C[C@@H](O)[C@@H]3C[C@@]1(O[C@@H]1O[C@H](CO)[C@@H](O)[C@H](O)[C@H]1O)[C@@]3(COC(=O)c1ccccc1)C(=O)O2 = 5.43

----------
target: hNET (Homo sapiens, UniProt P23975); experiment: [3H]-NE uptake in transporter-transfected HEK293 cells; conditions: HEK293 cell line, read-out: IC50 values, uptake of [3H]-NE (NET)
Sequence (P23975 whole entry): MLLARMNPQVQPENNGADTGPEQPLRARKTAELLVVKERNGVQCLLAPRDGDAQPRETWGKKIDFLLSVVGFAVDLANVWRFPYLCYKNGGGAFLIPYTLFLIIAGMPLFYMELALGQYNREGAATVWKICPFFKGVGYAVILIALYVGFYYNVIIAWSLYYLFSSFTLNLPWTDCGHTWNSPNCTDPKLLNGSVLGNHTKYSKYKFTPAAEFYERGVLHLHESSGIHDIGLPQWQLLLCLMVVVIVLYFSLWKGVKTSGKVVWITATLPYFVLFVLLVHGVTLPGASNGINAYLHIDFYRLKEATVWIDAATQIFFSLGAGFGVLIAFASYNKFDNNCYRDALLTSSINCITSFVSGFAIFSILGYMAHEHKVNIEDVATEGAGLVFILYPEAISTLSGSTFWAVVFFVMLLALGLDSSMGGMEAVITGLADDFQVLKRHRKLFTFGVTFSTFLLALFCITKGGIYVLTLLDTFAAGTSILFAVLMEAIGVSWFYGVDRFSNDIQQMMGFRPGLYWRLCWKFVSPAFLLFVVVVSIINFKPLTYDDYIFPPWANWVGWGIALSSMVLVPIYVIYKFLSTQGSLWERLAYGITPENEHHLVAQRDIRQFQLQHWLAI
measurementName: IC50 (nM)

• C[C@]12C[C@@H](O)[C@@H]3C[C@@]1(O[C@@H]1O[C@H](CO)[C@@H](O)[C@H](O)[C@H]1O)[C@@]3(COC(=O)c1ccccc1)C(=O)O2 = 0.36

----------
Target: α1B (Homo sapiens)
Sequence (P35368 1-520): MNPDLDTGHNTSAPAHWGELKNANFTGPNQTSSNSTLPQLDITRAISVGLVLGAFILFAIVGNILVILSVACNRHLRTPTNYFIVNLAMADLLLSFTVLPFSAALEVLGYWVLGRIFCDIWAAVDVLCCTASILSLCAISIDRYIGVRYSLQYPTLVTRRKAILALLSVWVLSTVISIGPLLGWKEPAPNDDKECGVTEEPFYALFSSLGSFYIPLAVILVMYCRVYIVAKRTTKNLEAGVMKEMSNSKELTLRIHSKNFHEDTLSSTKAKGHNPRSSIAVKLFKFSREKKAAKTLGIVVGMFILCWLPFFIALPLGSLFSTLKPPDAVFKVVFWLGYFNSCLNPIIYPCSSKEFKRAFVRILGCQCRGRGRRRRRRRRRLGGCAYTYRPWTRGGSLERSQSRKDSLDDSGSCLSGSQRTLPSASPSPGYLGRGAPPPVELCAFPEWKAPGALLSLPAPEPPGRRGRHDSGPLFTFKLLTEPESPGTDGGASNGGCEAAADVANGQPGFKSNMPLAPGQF
measurementName: IC50

* C[C@]12C[C@@H](O)[C@@H]3C[C@@]1(O[C@@H]1O[C@H](CO)[C@@H](O)[C@H](O)[C@H]1O)[C@@]3(COC(=O)c1ccccc1)C(=O)O2 | > 10 µM

----------
Biological target: A1 (Homo sapiens, UniProt P30542)
Sequence (P30542 1-326): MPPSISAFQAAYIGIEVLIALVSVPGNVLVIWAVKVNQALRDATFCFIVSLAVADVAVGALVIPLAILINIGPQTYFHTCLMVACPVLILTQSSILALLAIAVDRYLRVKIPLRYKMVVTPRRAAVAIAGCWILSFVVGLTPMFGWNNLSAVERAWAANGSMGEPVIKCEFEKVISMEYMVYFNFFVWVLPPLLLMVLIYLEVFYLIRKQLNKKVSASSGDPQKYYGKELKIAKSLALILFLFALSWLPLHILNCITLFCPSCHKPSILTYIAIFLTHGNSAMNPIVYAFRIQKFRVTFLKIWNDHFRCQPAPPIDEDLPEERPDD
measurementName: IC50

- C[C@]12C[C@@H](O)[C@@H]3C[C@@]1(O[C@@H]1O[C@H](CO)[C@@H](O)[C@H](O)[C@H]1O)[C@@]3(COC(=O)c1ccccc1)C(=O)O2: > 10 µM
